Tested on: HEK293
experimentalDetails: Antiproliferative activity against HEK293 cells after 48 hrs by MTT assay
Assay type: cell-based
measurementParameters: Homo sapiens, HEK293, 48 h
So I've got a bunch of compounds here, and I need their IC50 values.

The cases that follow already have their IC50 on record.
| molecularString | testResult |
| --- | --- |
| O=C(/C=C/c1cn(S(=O)(=O)c2ccc(Cl)cc2Cl)c2ccccc12)c1ccncc1 | > 150 µM |
| COc1ccc(S(=O)(=O)n2cc(/C=C/C(=O)c3ccncc3)c3ccccc32)cc1 | > 150 µM |

// input: 7 compounds below; output: IC50 for each
1. O=C(/C=C/c1cn(S(=O)(=O)c2cccc([N+](=O)[O-])c2)c2ccccc12)c1ccncc1
2. CC(C)(C)c1ccc(S(=O)(=O)n2cc(/C=C/C(=O)c3ccncc3)c3ccccc32)cc1
3. COc1cccc2c1C(=O)c1c(O)c3c(c(O)c1C2=O)C[C@@](O)(C(=O)CO)C[C@@H]3O[C@H]1C[C@H](N)[C@H](O)[C@H](C)O1
4. Cc1ccc(S(=O)(=O)n2cc(/C=C/C(=O)c3ccncc3)c3ccccc32)cc1
5. CCCS(=O)(=O)n1cc(/C=C/C(=O)c2ccncc2)c2ccccc21
6. O=C(/C=C/c1cn(S(=O)(=O)c2cccc3ccccc23)c2ccccc12)c1ccncc1
7. O=C(/C=C/c1c[nH]c2ccccc12)c1ccncc1

> 150 µM
> 150 µM
143 µM
> 150 µM
> 150 µM
> 150 µM
> 150 µM

// input: 2 compounds below; output: IC50 for each
1. O=C(/C=C/c1cn(S(=O)(=O)c2ccc(Cl)cc2)c2ccccc12)c1ccncc1
2. O=C(/C=C/c1cn(S(=O)(=O)c2ccccc2[N+](=O)[O-])c2ccccc12)c1ccncc1

1: > 150 µM; 2: > 150 µM

====

Test system: MCF7
experimentalDetails: Antiproliferative activity against human MCF7 cells after 48 hrs by MTT assay
Assay type: functional, cell-based
measurementParameters: Homo sapiens, MCF7, 48 h; read-out: IC50
measurementType: pIC50
Numbers only, as −log10 of the molar value.

The cases that follow already have their pIC50 on record.
| molecularString | pIC50 |
| --- | --- |
| O=C(/C=C/c1cn(S(=O)(=O)c2ccc(Cl)cc2Cl)c2ccccc12)c1ccncc1 | 4.91 |
| O=C(/C=C/c1cn(S(=O)(=O)c2cccc([N+](=O)[O-])c2)c2ccccc12)c1ccncc1 | 4.44 |
| O=C(/C=C/c1cn(S(=O)(=O)c2ccc(Cl)cc2)c2ccccc12)c1ccncc1 | 4.43 |
| Cc1ccc(S(=O)(=O)n2cc(/C=C/C(=O)c3ccncc3)c3ccccc32)cc1 | 4.31 |
| O=C(/C=C/c1c[nH]c2ccccc12)c1ccncc1 | 4.34 |
| COc1ccc(S(=O)(=O)n2cc(/C=C/C(=O)c3ccncc3)c3ccccc32)cc1 | 4.18 |
| O=C(/C=C/c1cn(S(=O)(=O)c2cccc3ccccc23)c2ccccc12)c1ccncc1 | 4.24 |
| O=C(/C=C/c1cn(S(=O)(=O)c2ccccc2[N+](=O)[O-])c2ccccc12)c1ccncc1 | 4.43 |

// input: 2 compounds below; output: pIC50 for each
1. CCCS(=O)(=O)n1cc(/C=C/C(=O)c2ccncc2)c2ccccc21
2. CC(C)(C)c1ccc(S(=O)(=O)n2cc(/C=C/C(=O)c3ccncc3)c3ccccc32)cc1

1: 4.28; 2: 4.62

Entry source: ChEMBL document CHEMBL4152281
